The values you see were collected from ChEMBL document CHEMBL1143823.

System: Vero
assayProcedure: Cytotoxicity against african green monkey Vero cells by trypan blue exclusion assay
Assay type: cell-based
measurementContext: chlorocebus sabaeus

[
  {
    "compoundString": "N=C(N)NCCC[C@H](NC(=O)CN)C(=O)N[C@@H](CCCCN)C(=O)N[C@@H](CCCCN)C(=O)N[C@@H](CCCNC(=N)N)C(=O)N[C@@H](CCCNC(=N)N)C(=O)N[C@@H](CCC(N)=O)C(=O)N[C@@H](CCCNC(=N)N)C(=O)N[C@@H](CCCNC(=N)N)C(=O)N[C@@H](CCCNC(=N)N)C(=O)N[C@@H](CS)C(=O)O",
    "Activity": "Non-toxic"
  },
  {
    "compoundString": "N=C(N)NCCC[C@H](NC(=O)CN)C(=O)N[C@@H](CCCCN)C(=O)N[C@@H](CCCCN)C(=O)N[C@@H](CCCNC(=N)N)C(=O)N[C@@H](CCCNC(=N)N)C(=O)N[C@@H](CCC(N)=O)C(=O)N[C@@H](CCCNC(=N)N)C(=O)N[C@@H](CCCNC(=N)N)C(=O)N[C@@H](CCCNC(=N)N)C(=O)N[C@@H](CS)C(N)=O",
    "Activity": "Non-toxic"
  },
  {
    "compoundString": "CCCC[C@H](NC(=O)[C@H](CCCC)NC(=O)[C@H](CCC(N)=O)NC(=O)[C@H](CCCNC(=N)N)NC(=O)[C@H](CCCNC(=N)N)NC(=O)[C@H](CCCCN)NC(=O)[C@H](CCCCN)NC(=O)[C@H](CCCNC(=N)N)NC(=O)CN)C(=O)N[C@@H](CCCNC(=N)N)C(=O)N[C@@H](CS)C(=O)O",
    "Activity": "Non-toxic"
  }
]
